target: SIRT1 (Homo sapiens); assay: TAMRA based mass spectrometry assay of SIRT1 activity; format: biochemical; details: TAMRA peptide substrate; percent maximum fold activation; read-out: TAMRA % Fold Act
Sequence (Q96EB6 whole entry): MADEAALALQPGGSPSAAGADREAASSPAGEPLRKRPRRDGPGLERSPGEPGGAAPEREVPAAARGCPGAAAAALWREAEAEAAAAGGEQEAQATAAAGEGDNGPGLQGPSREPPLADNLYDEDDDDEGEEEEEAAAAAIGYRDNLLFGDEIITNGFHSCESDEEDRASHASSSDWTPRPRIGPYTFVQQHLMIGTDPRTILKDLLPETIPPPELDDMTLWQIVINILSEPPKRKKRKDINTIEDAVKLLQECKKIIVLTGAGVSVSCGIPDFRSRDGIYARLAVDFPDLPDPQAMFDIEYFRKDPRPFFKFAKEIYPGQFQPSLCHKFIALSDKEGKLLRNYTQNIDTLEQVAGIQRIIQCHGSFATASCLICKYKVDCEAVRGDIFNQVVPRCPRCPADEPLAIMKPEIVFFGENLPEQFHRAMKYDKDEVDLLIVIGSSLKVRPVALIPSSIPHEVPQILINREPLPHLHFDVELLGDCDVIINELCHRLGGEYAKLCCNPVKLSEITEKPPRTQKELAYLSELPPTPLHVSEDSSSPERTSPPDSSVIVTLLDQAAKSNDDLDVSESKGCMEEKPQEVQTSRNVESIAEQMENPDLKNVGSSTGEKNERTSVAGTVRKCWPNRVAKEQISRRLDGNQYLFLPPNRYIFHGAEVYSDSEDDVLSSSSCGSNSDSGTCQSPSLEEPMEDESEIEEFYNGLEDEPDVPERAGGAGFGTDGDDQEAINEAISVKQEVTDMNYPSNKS
value.type: Emax

Illustrative cases are given below, each with its answer.
1) Cc1cc(C)nc(NC(=O)c2cnc3ccc(-c4cccc(OC[C@H](O)CO)c4)nn23)c1: ≥ 350%
2) Cc1cccc(NC(=O)c2cnc3ccc(-c4cccc(OCC(O)CO)c4)nn23)n1 (stereo not drawn): ≥ 350%
3) O=C(Nc1cccc(N2CCOCC2)n1)c1cnc2ccc(N3CC[C@@H](F)C3)nn12: ≥ 350%
4) O=C(Nc1ncn2ccc(-c3ccccc3C(F)(F)F)nc12)c1ccccn1: < 350%
5) Cc1cc(C)nc(NC(=O)c2cnc3ccc(N4CC[C@H](F)C4)nn23)c1: ≥ 350%
6) O=C(Nc1cnc2ccc(-c3ccccc3C(F)(F)F)nn12)c1cccc(O)n1: ≥ 350%

State recorded Emax for all listed molecules.
1. Cc1cc2ncc(NC(=O)c3nccs3)n2nc1-c1ccccc1C(F)(F)F
2. Cc1cnc(C(=O)Nc2cnc3c(C)cc(-c4ccccc4C(F)(F)F)nn23)s1

1: ≥ 350%; 2: ≥ 350%

Numbers sourced from patent US9957271B2.
